The compounds listed here are annotated with their viability, T/C.
Test system: 126254-015-R-J1-PDC complex spheroid growth, % test/control
Assay: Anticancer human tumor 126254-015-R-J1-PDC patient-derived soft tissue sarcoma cell line growth inhibition [Asc]
Conditions: second compound 0.3 µM; first compound 0.1 µM; hits give low values
Response body: numeric value in %, unit text excluded.

Reference set, count: 2
COc1c(OCCCN2CCOCC2)ccc2c3n(c(=NC(=O)c4cnc(N)nc4)nc12)CCN3 + CCN1C(C(=O)NC23CCC(C(=O)O)(CC2)CC3)C(c2cccc(Cl)c2F)C2(C(=O)Nc3cc(Cl)ccc32)C12CCCCC2	26.9
CNC(C)C(=O)NC1CN(S(=O)(=O)c2cccc(S(=O)(=O)N3CCC4CCC(C(=O)NC(c5ccccc5)c5ccccc5)N4C(=O)C(NC(=O)C(C)NC)C3)c2)CCC2CCC(C(=O)NC(c3ccccc3)c3ccccc3)N2C1=O (centres undefined) + CCN1C(C(=O)NC23CCC(C(=O)O)(CC2)CC3)C(c2cccc(Cl)c2F)C2(C(=O)Nc3cc(Cl)ccc32)C12CCCCC2	65.3

Query :: For the compound O=C(c1cc(Cc2n[nH]c(=O)c3ccccc23)ccc1F)N1CCN(C(=O)C2CC2)CC1 + CCN1C(C(=O)NC23CCC(C(=O)O)(CC2)CC3)C(c2cccc(Cl)c2F)C2(C(=O)Nc3cc(Cl)ccc32)C12CCCCC2 , what viability, T/C is on record?
Result :: 90.9

Query :: Proceed to C=C(F)C(=O)N1CCN(c2nc(OCC3CCCN3C)nc3c2CCN(c2cccc4cccc(Cl)c24)C3)CC1CC#N (centres undefined) + CCN1C(C(=O)NC23CCC(C(=O)O)(CC2)CC3)C(c2cccc(Cl)c2F)C2(C(=O)Nc3cc(Cl)ccc32)C12CCCCC2
Result :: 105

* * *

System: 126254-015-R-J1-PDC complex spheroid growth, % test/control
Experiment: Anticancer human tumor 126254-015-R-J1-PDC cell line growth inhibition [Asc];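 further: spheroids exposed to compound for seven days; 100% = DMSO vehicle control wells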
Settings: second compound 0.1 µM; first compound 0.00316 µM; hits give low values
Experimental readout: viability, T/C (%)
Report only the number, with the unit % understood.

Solved cases (2 shown):
CCN1CCN(Cc2ccc(Nc3ncc(F)c(-c4cc(F)c5nc(C)n(C(C)C)c5c4)n3)nc2)CC1 + Cc1c(S(C)(=O)=O)c(-c2cc(F)cc(N3CCN(c4ccc(NS(=O)(=O)c5ccc(NC(CCN6CCC(C(=O)OCCCP(=O)(O)O)CC6)CSc6ccccc6)c(S(=O)(=O)C(F)(F)F)c5)cc4)CC3)c2)c(-c2ccc(Cl)cc2)n1C(C)C	99.3
Cn1ncnc1[C@H]1c2n[nH]c(=O)c3cc(F)cc(c23)N[C@@H]1c1ccc(F)cc1 + Cc1c(S(C)(=O)=O)c(-c2cc(F)cc(N3CCN(c4ccc(NS(=O)(=O)c5ccc(NC(CCN6CCC(C(=O)OCCCP(=O)(O)O)CC6)CSc6ccccc6)c(S(=O)(=O)C(F)(F)F)c5)cc4)CC3)c2)c(-c2ccc(Cl)cc2)n1C(C)C	82.1

Now, please, on to the next molecule.
Query :: I have this molecule here, NC1CCC(NC2CC2c2ccccc2)CC1 (stereo not drawn) + Cc1c(S(C)(=O)=O)c(-c2cc(F)cc(N3CCN(c4ccc(NS(=O)(=O)c5ccc(NC(CCN6CCC(C(=O)OCCCP(=O)(O)O)CC6)CSc6ccccc6)c(S(=O)(=O)C(F)(F)F)c5)cc4)CC3)c2)c(-c2ccc(Cl)cc2)n1C(C)C , and I need its recorded viability, T/C.
Result :: 76.7
